Target: T1, human soluble IL-6R, recombinant (human, UniProt P08887 20-358)
T1 construct: also called human IL6-R; bio-IL-6R
T1 sequence (looked up): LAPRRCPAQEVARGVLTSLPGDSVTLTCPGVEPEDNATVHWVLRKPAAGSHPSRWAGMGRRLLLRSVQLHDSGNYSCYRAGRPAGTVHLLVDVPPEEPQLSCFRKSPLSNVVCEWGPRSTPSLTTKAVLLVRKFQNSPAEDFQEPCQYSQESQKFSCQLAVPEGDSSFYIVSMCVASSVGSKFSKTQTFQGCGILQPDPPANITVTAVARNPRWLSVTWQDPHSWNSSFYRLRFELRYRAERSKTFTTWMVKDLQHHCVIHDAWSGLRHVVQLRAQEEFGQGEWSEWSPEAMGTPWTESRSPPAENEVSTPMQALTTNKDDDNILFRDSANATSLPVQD
Assay: Biacore, periplasmic extract
# koff values compiled below
observed-property: koff (s⁻¹)

| binder | observed-property | value-measured |
| --- | --- | --- |
| IL6RPMP107A1 (VHH, also called IL6R107A1) VHH: EVQLVESGGGLVQAGGSLNLSCNASGDIGSINAMGWYRQAPGQQREWVAVITDTDSTIYPDSVKGRFAISRDGAKNTVHLRMSSLKPEDTAVYYCNAYQAGWGDYWGQGTQVTVSS | koff | 0.00075 |
| IL6RPMP105B8 (VHH, family 3; periplasmic extract) VHH: EVQLVESGGGLVRAGGSLRLSCAASGFAFDDYAIGWFRQAPGKEREGVSSISSSNGNTYYADSVRGRFTISSDNAKNTVYLQMNSLKPEDTGVYYCAAIWGIFFNEKMPVGAYDYWGQGTQVTVSS | koff | 0.01 |
| IL6RPMP105C2 (VHH, family 6; periplasmic extract) VHH: EVQLVESGGGLVQAGGSLRLSCAASGSIFRINAMGWYRQAPGEQRELVAAAISGGSTNYADFVKGRFTISRDNAKNTVYLQMNSLKPEDTAVYYCNALVVSHNYSDYVPFPDDYWGQGTQVTVSS | koff | 0.01 |
| IL6RPMP104B9 (VHH, family 5; periplasmic extract) VHH: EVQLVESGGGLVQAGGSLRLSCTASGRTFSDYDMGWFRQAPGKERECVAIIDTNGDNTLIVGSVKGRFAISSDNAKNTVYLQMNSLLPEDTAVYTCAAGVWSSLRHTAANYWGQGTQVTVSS | koff | 0.00023 |
| IL6RPMP101B6 (VHH, family 7; periplasmic extract) VHH: EVQLVESGGGLVQAGGSLRLSCAASGSDFSIKAMGWYRQAPGKQRELVARITSGGSTVYADSVKGRFTISRDNAKNTVYLQMNSLKPEDATVYYCNAIVTYSDYDLGNDYWGQGTQVTVSS | koff | 0.00058 |
| IL6RPMP104E4 (VHH, family 8; also called PMP104E04; IL6R104E4) VHH: EVQLVESGGGTVQAGGSLKLSCAASGRTFTNYAMGWFRQAPGKEREFVAAIAYATHFADSVKGRFTISRGNAKNTVYLQMNSLKPEDTAVYYCAADLSLSKMVSKITSDMDYWGKGTLVTVSS | koff | 0.00075 |
| IL6RPMP105D3 (VHH, family 6; periplasmic extract) VHH: EVQLEESGGGLVQAGGSLRLSCAASGSIFRINAMGWYRQAPGKQRELVAAAISGGSTNYADFVKGRFTISRDNAKNTVYLQMNSLKPEDTAVYYCNALVVSHNYSDYVPFPDDYWGQGTQVTVSS | koff | 0.01 |
| IL6RPMP107B4 (VHH, family 17; periplasmic extract; also called PMP107B04) VHH: EVQLVESGGGLVQAGGSLRLSCVASGLRLNMHRMGWFRQAPGKEREFVARIFTDDGDSYYADSVQGRFTISGDNAKNTVYLQMNSLKPEDTGVYFCAAGYMSGAESPIGYDNWGQGTQVTVSS | koff | 0.01 |
